- method: Inhibition of NF-kappaB/AP-1 in mouse RAW264.7 cells assessed as reduction in LPS-induced nitric oxide production incubated for 1 hr followed by stimulation with LPS for 24 hrs by Griess assay
- Type: cell-based
quantity: IC50 (µM)
Field format: number, assumed µM, no unit text.

-- ask What value of IC50 has been reported for the following molecule? C/C(=C\CO)CO[C@@H]1O[C@H](COC(=O)/C=C/c2ccc(O)c(O)c2)[C@@H](O)[C@H](O)[C@H]1O
-- reply 31.5

-- ask What value of IC50 has been reported for the following molecule? COc1cc(CCCO)cc(OC)c1O[C@@H]1O[C@H](COC(=O)/C=C/c2ccc(O)c(O)c2)[C@@H](O)[C@H](O)[C@H]1O
-- reply 43.6

---

Reported IC80 at 24 h values are given for each entry in this list.
- method: Cytotoxicity against LPS-induced mouse RAW264.7 cells assessed as decrease in cell viability after 24 hrs by MTT assay
- Type: toxicity
- run parameters: LPS-induced RAW264.7 cells
Field format: number, assumed µM, no unit text.

chem smiles: COc1cc(CCCO)cc(OC)c1O[C@@H]1O[C@H](COC(=O)/C=C/c2ccc(O)c(O)c2)[C@@H](O)[C@H](O)[C@H]1O
quantity: IC80 at 24 h
readout unit: µM
reported: 67.6

-- ask What value of IC80 at 24 h has been reported for the following molecule? CC1=CC(=O)CC(C)(C)[C@@]1(O)/C=C/[C@@H](C)O[C@@H]1O[C@H](COC(=O)/C=C/c2ccc(O)c(O)c2)[C@@H](O)[C@H](O)[C@H]1O
-- reply 67.8

---

Reported IC50 values are given for each entry in this list.
- method: Inhibition of NF-kappaB/AP-1 in mouse RAW264.7 cells assessed as reduction in LPS-induced nitric oxide production incubated for 1 hr followed by stimulation with LPS for 24 hrs by Griess assay
- Format: cell-based

chem smiles: CC(=O)/C=C/C1=C(C)[C@@H](O)[C@@H](O[C@@H]2O[C@H](COC(=O)/C=C/c3ccc(O)c(O)c3)[C@@H](O)[C@H](O)[C@H]2O)CC1(C)C
reported: > 50 µM

chem smiles: C[C@H](/C=C/[C@@]1(O)[C@H](C)CC(=O)CC1(C)C)O[C@@H]1O[C@H](COC(=O)/C=C/c2ccc(O)c(O)c2)[C@@H](O)[C@H](O)[C@H]1O
reported: > 50 µM

Field: next compound
-- ask What value of IC50 has been reported for the following compound? CC1=CC(=O)CC(C)(C)[C@@]1(O)/C=C/[C@@H](C)O[C@@H]1O[C@H](COC(=O)/C=C/c2ccc(O)c(O)c2)[C@@H](O)[C@H](O)[C@H]1O
-- reply > 50 µM

---

- method: Cytotoxicity against LPS-induced mouse RAW264.7 cells assessed as decrease in cell viability after 24 hrs by MTT assay
- Assay type: toxicity
- run parameters: LPS-induced RAW264.7 cells
Reported IC80 at 24 h values are given for each entry in this list.

Observe how each entry below is paired with its result.
chem smiles: C/C(=C\CO)CO[C@@H]1O[C@H](COC(=O)/C=C/c2ccc(O)c(O)c2)[C@@H](O)[C@H](O)[C@H]1O
reported: > 100 µM

chem smiles: C[C@H](/C=C/[C@@]1(O)[C@H](C)CC(=O)CC1(C)C)O[C@@H]1O[C@H](COC(=O)/C=C/c2ccc(O)c(O)c2)[C@@H](O)[C@H](O)[C@H]1O
reported: > 100 µM

Field: next molecule
-- ask What value of IC80 at 24 h has been reported for the following molecule? CC(=O)/C=C/C1=C(C)[C@@H](O)[C@@H](O[C@@H]2O[C@H](COC(=O)/C=C/c3ccc(O)c(O)c3)[C@@H](O)[C@H](O)[C@H]2O)CC1(C)C
-- reply > 100 µM
